Data origin, for the record: the supplement of paper PMC6555819

Overview of recorded PBM binding z-score for various sequences
Tested on: PPARg:RXRa 270nM:90nM, anti-RXR (NR concentration 270 nM, RXRa partner concentration 90 nM)
Measurement Protocol: PBM binding z-score (relative to random genomic background probes); higher = stronger binding; sequences stand for … in GC…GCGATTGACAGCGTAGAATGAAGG
Measure Name: PBM binding z-score

| Seq | Measured Value |
| --- | --- |
| TCTTGTAGATCAAATGTTAAGAAAGCCGAAGCCT | 3.42 |
| TCGAGTAGGTTCGGGGCATTCAGAATGGCGTCGA | 0.0439 |
| GCTGCTAGGTCCGGTTGGTCAGCTAACGGGTACG | -0.342 |
| AGAATGAGTTTACCAAAGATCAGGGAAACGCTTG | 0.55 |
| ACTATTAATTGAGACGAGGGCAACCGATAGGTTG | 0.479 |
| CGAACGAGGGCATGAGGTGATAGCAAATGCCGAT | 2.23 |
| GCGACTGGGGGATCAGCAGGTTACCATAACTTAA | 1.73 |
| TCATAAAGGTAAACAGGTGAAAGTCCGTAAGTTA | 3.47 |

* * *

System: RARa:RXR (NR concentration 270 nM, RXRa partner concentration 90 nM)
Measurement Protocol: PBM binding z-score (relative to random genomic background probes); higher = stronger binding; sequences stand for … in GC…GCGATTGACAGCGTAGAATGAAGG
Threshold check on PBM binding z-score: at or above 0.8 gives true (1), strictly below gives false (0).

| Seq | Tgt | Assigned Label |
| --- | --- | --- |
| GCTTGTAGATCAACGTTAAGAAAGACTAAGCTAA | RARa:RXR (NR concentration 270 nM, RXRa partner concentration 90 nM) | false (0) |
| GCTAGTTGGCCAGTAAAAGGTCACACACCGGTCG | RARa:RXR (NR concentration 270 nM, RXRa partner concentration 90 nM) | true (1) |
| ATCGAAAGGTCGAGGAGAGTATAGAGAAAGGGAA | RARa:RXR (NR concentration 270 nM, RXRa partner concentration 90 nM) | true (1) |
| GCTAGCAGACCATTTGGGTCACTCAATGACGGGC | RARa:RXR (NR concentration 270 nM, RXRa partner concentration 90 nM) | false (0) |
| ATCTCTAGGTAAGACTCAGCTCAGTGAAGAACGC | RARa:RXR (NR concentration 270 nM, RXRa partner concentration 90 nM) | false (0) |
| GCATATAAGTAATACAAGGTGAAAGTCCGATTGT | RARa:RXR (NR concentration 270 nM, RXRa partner concentration 90 nM) | true (1) |
| ATCTCTAGGTAAAAGTACAGTGAATCCCGAGGAT | RARa:RXR (NR concentration 270 nM, RXRa partner concentration 90 nM) | false (0) |
| CCTATTAGTTGACCACAAGGGCAACCGAAGCTCG | RARa:RXR (NR concentration 270 nM, RXRa partner concentration 90 nM) | false (0) |
| TAGCCTAGGTCATTCAGGGGCCAGGATAGAAAGC | RARa:RXR (NR concentration 270 nM, RXRa partner concentration 90 nM) | true (1) |
| ATCTCTAGGTAAAGTTCAATGAAAGATCGATAGA | RARa:RXR (NR concentration 270 nM, RXRa partner concentration 90 nM) | true (1) |
| AGAACGAGGGTAATGAGTTGATAGCACGGGTGGC | RARa:RXR (NR concentration 270 nM, RXRa partner concentration 90 nM) | false (0) |
| TCTCGGAGGACACGAACGTCAGAGCTTTCCAGAG | RARa:RXR (NR concentration 270 nM, RXRa partner concentration 90 nM) | false (0) |
| CAAACTAGGTCCCGAAAGGTCAAAGTCGAATGAC | RARa:RXR (NR concentration 270 nM, RXRa partner concentration 90 nM) | true (1) |
| ATCGAAAGGTCTTGAGGTGAGTATACAGAAAGGC | RARa:RXR (NR concentration 270 nM, RXRa partner concentration 90 nM) | true (1) |
| GCTAGTTGGTCAGTAAAAGGTCACTCACCGGTCG | RARa:RXR (NR concentration 270 nM, RXRa partner concentration 90 nM) | true (1) |
| CCTCGGAGGACAACAGGCGGTCAGAGCTGCCAGA | RARa:RXR (NR concentration 270 nM, RXRa partner concentration 90 nM) | false (0) |
| AGAATGAGGTTATACGTAGATCTGGGAAGAAAGT | RARa:RXR (NR concentration 270 nM, RXRa partner concentration 90 nM) | true (1) |
| ACTAGTTTGTCAGCTGAGGTCACACACAATTCGG | RARa:RXR (NR concentration 270 nM, RXRa partner concentration 90 nM) | true (1) |
